# EXPERIMENT: Toxicity liver stage against HepG2, at 10uM
# Type: cell-based
# Design: test concentration 10 uM, cell line HepG2-A16-CD81EGFP
# CONDITIONS: human, HepG2-A16-CD81EGFP cells; read-out: INHIBITION
METRIC_NAME: cytotoxicity at 10 µM (%)
Answers are plain numbers, in %.

{"COMPOUND": "Cc1ccc(S(=O)(=O)Cc2noc([C@@H]3C[C@@H](O)CN3)n2)cc1", "MEASUREMENT_UNITS": "%", "DATA_VALUE": -5.78}

I would be grateful if you could provide cytotoxicity at 10 µM for each of the following entries.
1. Cc1cccc(C)c1NC(=O)c1cccc(CN2CCCC2C)c1 (configuration not stated)
2. CCn1nc(C)c2c1cnn2CCNS(=O)(=O)Cc1ccccc1

Out:
1: 4.73; 2: 9.6

Okay, here is my list. What is cytotoxicity at 10 µM for each of these?
1. CC(C)c1nncn1CCNC(=O)c1c(O)cc(F)cc1F
2. Cn1nc(CO)c2c1CCN(c1ncnc3c1CCNCC3)C2
3. Cc1nc(CN(C)C2CCN(Cc3nc4c(F)cccc4[nH]3)C2)no1 (configuration not stated)
4. CCC1CCCN(S(=O)(=O)c2cnc3onc(C)c3c2)C1 (configuration not stated)
5. Cc1noc2ncc(C(=O)N3CCCC3c3ccncc3)cc12 (configuration not stated)
6. CC(C)N1CCC(NC(=O)NCc2ccccc2)CC1
7. O=C1CC2(CCN(CC3CC3)C2)CN1c1cccnc1 (configuration not stated)
8. Cc1csc([C@@H]2C[C@@H]3CCN(C(=O)c4ccnnc4)C[C@H]3O2)n1

Out:
1. -1.99
2. 0.549
3. -4.09
4. 4.72
5. -5.66
6. 5.89
7. -1.18
8. 4.49

In: Supply cytotoxicity at 10 µM value. Item: Cc1csc(NC(=O)C2(C)CN(C)CCO2)n1 (configuration not stated)
Out: -3.67

###

# EXPERIMENT: Toxicity liver stage against HepG2, at 10uM
# Assay type: cell-based
# Parameters: test concentration 10 uM, cell line HepG2-A16-CD81EGFP
# CONDITIONS: human, HepG2-A16-CD81EGFP cells; read-out: INHIBITION
So I've got a bunch of molecules here, and I need their cytotoxicity at 10 µM values.

{"MOLECULE": "CCc1ccc(CN2CC[C@H]3C[C@H](c4nnc(C)[nH]4)O[C@@H]3C2)o1", "cytotoxicity at 10 µM": "-8.51%"}
{"MOLECULE": "COCCCn1ccc(NCc2ccc(NC(C)=O)cc2)n1", "cytotoxicity at 10 µM": "2.33%"}
{"MOLECULE": "Cc1cc(C)n(CC2CCCN2C(=O)CCc2ccco2)n1 (stereo not drawn)", "cytotoxicity at 10 µM": "-3.75%"}
{"MOLECULE": "CC(C)CNC(=O)C[S+]([O-])Cc1csc(C2CCCCC2)n1 (stereo not drawn)", "cytotoxicity at 10 µM": "-48.5%"}
{"MOLECULE": "CC(=O)Nc1nc(-c2ccc(C)c(C)c2)c[nH]1", "cytotoxicity at 10 µM": "-19.3%"}
{"MOLECULE": "Cc1cccc(NC(=O)[C@@H]2CCCN2Cc2nc(C)c(C)o2)n1", "cytotoxicity at 10 µM": "-4.34%"}

I have 2 molecules here; please give me cytotoxicity at 10 µM for each one.
1. Cc1cccnc1[C@]1(O)CC[C@H]2CN(Cc3cccc(Cl)c3Cl)C[C@H]21
2. CCOCC1CN(C(=O)N(C)C)Cc2nn(C)cc21 (stereo not drawn)

Out:
1. -5.86%
2. -11.9%

Batch of 8 molecules: report cytotoxicity at 10 µM for each.
1. CC(C)S(=O)(=O)N1CCOC(CCc2ccccc2)C1 (stereo not drawn)
2. CC(=O)N1C[C@@H](F)[C@@H](OCc2nc3cc(C)c(C)cc3[nH]2)C1
3. Cc1ccc(C(O)CNC(=O)Nc2cc(C)nn2C)cc1 (stereo not drawn)
4. O=C(C1CCC1)N1CC[C@H](O)[C@@H]1Cc1cccnc1
5. Cc1nn(C)c2nc(N3CCC(C(O)c4ccccn4)CC3)sc12 (stereo not drawn)
6. COc1cc(F)c(CN2CCN(CC(C)C)C(=O)C2C)cc1OC (stereo not drawn)
7. COc1ccc(Br)cc1S(=O)(=O)N(C)Cc1ccc(N(C)C)cc1
8. CC(C)[C@@H]1CN(S(=O)(=O)c2cccc(C(=O)O)c2)C[C@H]1N(C)C

Out:
["-4.53%", "1.77%", "-13.3%", "-105%", "22.2%", "1.63%", "-7.59%", "-39.1%"]

I'm hoping you can list cytotoxicity at 10 µM for every molecule here, please.
1. CC(=O)N1CCO[C@@H]2CN(S(=O)(=O)C3CC3)C[C@@H]2C1
2. CCn1cnnc1CCNC(=O)CCNC(=O)c1ccccc1F
3. CC1=C(C(=O)N(C)Cc2noc3c2CCCC3)C(C)NC(=O)N1 (stereo not drawn)
4. Cc1nccn1-c1ccc(CN2CC3C[C@@H](O)CN3C[C@@H]2C)cc1 (stereo partly drawn)

Out:
1. -104%
2. 4.49%
3. -0.844%
4. 6.26%

# batch: return cytotoxicity at 10 µM for each of the 3 molecules below
1. CSCC(C)(O)CNC(=O)c1ccc(F)cc1Cl (stereo not drawn)
2. CCN(CC)C1CCN(C(=O)NCc2nncn2CC)CC1
3. CC(C)CNC(=O)[C@H]1C[C@H]2CN(C(=O)NCC3CCCCC3)C[C@@H]1O2

Out:
-2.79%
2.72%
-4.81%
